Reported growth values for the following compounds.
# Tested on: OVCAR-5 ovarian
# ASSAY COMMENT: NCI-60 one-dose screen, 48 h (100 = growth as untreated, 0 = no growth, -100 = all killed)
# CONDITION INFO: 10 µM unless noted
This is part of a sample that, as a whole, favours compounds with a hit. Of some 83,000 tested, about 20% had one in any assay. The source made the active and inactive calls. Rule for the calls: active = growth percent below 10; inactive = the rest.
ASSAY READOUT: growth

COMPOUND: COc1ccc2[nH]c(O)c(N=Nc3nc(-c4ccc(Br)cc4)cs3)c2c1
MEASURED: 31.4% (inactive)
--
COMPOUND: COc1cc(C2CC(c3ccc(S(=O)(=O)NCCNc4nc(N(C)C)nc(N5CCOCC5)n4)cc3)=Nc3c(N)nc(N)nc3N2)cc(OC)c1OC (centres undefined)
MEASURED: 93.4% (inactive)
--
COMPOUND: S=C(NCCc1ccccc1)Nc1ccc(OCc2nc3ccc(Cl)cc3[nH]2)cc1
MEASURED: 30.5% (inactive)
--
COMPOUND: O=C(N/N=C/c1c[nH]c2ccccc12)Nc1ccccc1Cl
MEASURED: 23.1% (inactive)
--
COMPOUND: C#CCN(C)CCCOc1ccc(N(CC)C(=O)c2cc(C(C)C)c(O)cc2O)cc1Cl
MEASURED: 19.7% (inactive)
--
COMPOUND: Cn1cc(-c2cc(N)n3nc(-c4c[nH]c5ccc(Cl)cc45)cc3n2)c2cc(Br)cnc21
MEASURED: -61.2% (active)
--
COMPOUND: N#C/C(=C/c1ccc(Cl)cc1)c1nnc(NC(=O)c2ccc(-n3c(=O)[nH]c4ccccc4c3=O)cc2)s1
MEASURED: 83.9% (inactive)
--
COMPOUND: O=C(c1ccc(Cl)cc1)C1[C@H](c2ccccc2Cl)[C@@H](c2ccccc2)NC12C(=O)Nc1ccc(Cl)cc12 (some centres undefined)
MEASURED: -53.8% (active)
--
COMPOUND: CC1=C(C)C(=O)C(NCCN2CCOCC2)=C(Br)C1=O
MEASURED: 4% (active)
